assayed.system: human importin α5 ΔIBB (human)
Sequence (chain, as listed by the source mutant): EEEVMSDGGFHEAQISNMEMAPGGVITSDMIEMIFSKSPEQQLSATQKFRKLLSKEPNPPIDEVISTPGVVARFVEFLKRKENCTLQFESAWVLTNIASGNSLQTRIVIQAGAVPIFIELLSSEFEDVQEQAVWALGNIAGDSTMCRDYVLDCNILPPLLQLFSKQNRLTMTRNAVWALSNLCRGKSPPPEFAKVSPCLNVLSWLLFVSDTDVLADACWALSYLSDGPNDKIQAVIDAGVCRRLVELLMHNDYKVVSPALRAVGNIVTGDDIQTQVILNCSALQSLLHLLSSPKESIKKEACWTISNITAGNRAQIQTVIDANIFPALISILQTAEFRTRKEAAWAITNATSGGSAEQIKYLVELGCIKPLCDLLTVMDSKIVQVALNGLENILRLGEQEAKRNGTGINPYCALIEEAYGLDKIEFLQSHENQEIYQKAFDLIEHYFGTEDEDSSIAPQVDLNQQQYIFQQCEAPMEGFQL
test.protocol: FP
Where no end group is shown, it is not given here. The star is where a group is joined. FITC = O=C1OC2(c3ccc(O)cc3Oc3cc(O)ccc32)c2ccc(NC(=S)*)cc21; Ahx = NCCCCCC(=O)O
observable: Kd (µM)
Write it as a number; the unit µM goes unstated.

Reported Kd, binder {FITC-Ahx}-IAEYKRRHNIGSDGLPNKRRRCLF [BSB PyV-LTA;NLS peptide (Black Sea Bass polyomavirus large tumor antigen residues 660-683)] : ____
0.012
